The reported numbers originate from PubChem BioAssay (NCI).

Test system: SNB-75 CNS
TEST: NCI tumour cell line growth inhibition, 48 h
As shown below, each of these compounds has a reported TGI value.
Field format: number, assumed µM, no unit text.

Please review the entries below; each comes with its answer.
In [3]: df
Out[3]:
                                   compound  unit_annotation  test_result
0  COc1cccc(C(=O)NNc2nc(Cl)nc(N3CCN(C(c4ccccc4)c4ccccc4)CC3)n2)c1               µM         3.56
1  CS(=O)(=O)Nc1cc(-c2ccc3ncc(C#N)c(Nc4ccc(F)c(Cl)c4)c3c2)cnc1Cl               µM        0.507

Now turn to the next compound.
Per the record, COc1cc(/C=C2\CC3C4CCC5=CC(=O)CC[C@]5(C)C4CC[C@]3(C)C2=O)ccc1OCCN1CCCC1 (stereo not given in full) has TGI of 11.1

---

Test system: HT29 colon
TEST: NCI tumour cell line growth inhibition, 48 h
As shown below, each of these molecules has a reported TGI value.

Please review the entries below; each comes with its answer.
                                   molecule  test_result
0       CCOC(=O)/C(C1=NCCN1C)=C(\O)c1ccccc1     > 100 µM
1  O=C(c1ccccc1)n1cc(/C=C/[N+](=O)[O-])c2ccccc21     > 100 µM
2  COc1cc(/C=C2\CC3C4CCC5=CC(=O)CC[C@]5(C)C4CC[C@]3(C)C2=O)ccc1OCCN1CCCC1 (some centres undefined)    > 28.5 µM
3  COc1ccc(S(=O)(=O)N/N=C(\C)CN2C(=O)c3ccccc3C2=O)cc1OC     > 100 µM

Per the record, CCCCCOC(=O)Nc1nc(=O)n(C2OC(C)C(O)C2O)cc1F (centres undefined) has TGI of > 10000 µM

Per the record, C/C=C1\Oc2ccc(OC)cc2S1(=O)=O has TGI of > 100 µM

Per the record, CC(C)n1cc(-c2ccc3c(c2)N(C)CC3)c2c(NS(=O)(=O)c3ccn(C)n3)ccnc21 has TGI of > 100 µM

Per the record, Nc1nc2ccc(CNc3ccc(C(=O)NC(CC(=O)O)C(=O)O)cc3)cc2c(=O)[nH]1 (centres undefined) has TGI of > 100 µM

Per the record, COC(=O)C(=O)C(C(=O)OC)C(=O)C(=O)Nc1cc(Cl)c(C)cc1S(=O)(=O)O (centres undefined) has TGI of > 100 µM

---

As shown below, each of these compounds has a reported TGI value.
Test system: HL-60(TB) leukemia
TEST: NCI tumour cell line growth inhibition, 48 h

Please review the entries below; each comes with its answer.
In [3]: df
Out[3]:
                                   compound  metric_name  test_result
0  O=C(O)CN1C(=O)OC(c2ccccc2)C1=O (stereo not drawn)          TGI     > 100 µM
1     N#Cc1c(-c2ccccc2)cn(C(=O)c2ccccc2)c1N          TGI     > 100 µM

Now turn to the next compound.
TGI on HL-60(TB) leukemia for COP12(OC)NC(=O)OC1(C(F)(F)F)c1ccccc1O2 (stereo not drawn) is > 100 µM
